assay: Inhibitory concentration against Factor IIa
Experimental readout: pIC50
# pIC50 = -log10(concentration in molar units)

Entry `CC[C@@H](C)NC(=O)c1cc(N)cc(-c2cnc(NC(C)C)c(=O)n2CC(=O)NCc2ccc(C(=N)N)cc2C(N)=O)c1` needs its pIC50 filled in; supply it.
4.86

Entry `CC[C@@H](C)NC(=O)c1cc(N)cc(-c2cnc(NC(C)C)c(=O)n2CC(=O)NCc2ccc(C(=N)N)cc2)c1` needs its pIC50 filled in; supply it.
5.21

Entry `CC[C@@H](C)NC(=O)c1cc(N)cc(-c2cnc(NC(C)C)c(=O)n2CC(=O)NCc2ccc(C(=N)N)cc2C(=O)NCCN2CCOCC2)c1` needs its pIC50 filled in; supply it.
4.78

Ref: ChEMBL document CHEMBL1139615
